assay: Cytotoxicity determination in HepG2.2.15 cells (CCK-8); assay type: cell-based; conditions: human, 6 days of compound treatment, CCK-8, highest concentration 100 μM
recorded.metric: log10(CC50 at 6 days) (log10 of the value in µM)

[[record]]
molecule = "COC(=O)C1=C([C@H]2CC[C@H](S(=O)(=O)N3CC[C@@H](C(=O)O)C3)CC2)NC(c2nccs2)=NC1c1ccc(F)c(F)c1Cl (stereo in doubt) [Compound 293C]"
obs_value = 1.93

[[record]]
molecule = "CCOC(=O)C1=C(C2CCN(S(=O)(=O)C3CC(C(=O)O)C3)CC2)NC(c2nccs2)=NC1c1ccc(F)c(F)c1Br (stereo in doubt) [Compound 199B]"
obs_value = 1.15

[[record]]
molecule = "COC(=O)C1=C([C@H]2CC[C@H](NS(=O)(=O)C3COC3)CC2)NC(c2nccs2)=NC1c1ccc(F)cc1Cl (single isomer, unassigned) [Compound 384B]"
obs_value = 1.53

[[record]]
molecule = "COC(=O)C1=C(C2CN(S(=O)(=O)C3CCC3)C2)NC(c2nccs2)=NC1c1ccc(F)cc1Cl (stereo not drawn)"
obs_value = 0.80

[[record]]
molecule = "COC(=O)C1=C(C2CCN(S(=O)(=O)[C@H]3CC[C@H](C(=O)O)CC3)CC2)NC(c2nccs2)=NC1c1ccc(F)cc1Cl (relative stereo) [Compound 313B]"
obs_value = 1.54

[[record]]
molecule = "COC(=O)C1=C([C@H]2CC[C@H](N(CCO)S(C)(=O)=O)CC2)NC(c2nccs2)=NC1c1ccc(F)c(F)c1Cl (single isomer, unassigned) [Compound 315D]"
obs_value = 1.10

[[record]]
molecule = "CCOC(=O)C1=C(C2CCN(S(=O)(=O)[C@H]3C[C@H](C(=O)O)C3)CC2)NC(c2nccs2)=NC1c1ccc(F)cc1Br (stereo partly drawn) [Compound 333B]"
obs_value = 1.52

[[record]]
molecule = "CCOC(=O)C1=C([C@H]2CCC[C@H](C(=O)O)CC2)NC(c2nccs2)=NC1c1ccc(F)c(F)c1Cl (single isomer, unassigned) [Compound 302A]"
obs_value = 1.18

[[record]]
molecule = "COC(=O)C1=C(C23CC(NS(=O)(=O)CC(O)CO)(C2)C3)NC(c2nccs2)=NC1c1ccc(F)cc1Cl (stereo not drawn) [Compound 393B]"
obs_value = 1.93

[[record]]
molecule = "CCOC(=O)C1=C(C2CCN(S(=O)(=O)CCO)CC2)NC(c2nccs2)=NC1c1ccc(F)c(F)c1Cl (single isomer, unassigned) [Compound 356B]"
obs_value = 1.09

[[record]]
molecule = "CCOC(=O)C1=C([C@@H]2C[C@H](NC(C)=O)CO2)NC(c2nccs2)=NC1c1cccc(F)c1Cl (relative stereo)"
obs_value = 1.88

[[record]]
molecule = "CCOC(=O)C1=C(C2CCN(S(=O)(=O)c3cnn(CCCCC(=O)O)c3)CC2)NC(c2nccs2)=NC1c1ccc(F)c(F)c1Cl (stereo not drawn)"
obs_value = 1.09

[[record]]
molecule = "COC(=O)C1=C(C2CCN(S(=O)(=O)CCO)CC2)NC(c2nccs2)=NC1c1ccc(F)c(F)c1Cl (stereo not drawn)"
obs_value = 1.26

[[record]]
molecule = "COC(=O)C1=C(C2CC(O)C2)NC(c2nccs2)=NC1c1ccc(F)cc1Cl (stereo not drawn)"
obs_value = 1.81

[[record]]
molecule = "CNC(=O)C1COC(C2=C(C(=O)OC)C(c3cccc(F)c3Cl)N=C(c3nccs3)N2)C1 (stereo not drawn)"
obs_value = 1.91

[[record]]
molecule = "COC(=O)C1=C(C2CCN(S(=O)(=O)CCO)CC2)NC(c2nccs2)=NC1c1ccc(F)cc1Cl (single isomer, unassigned) [Compound 185B]"
obs_value = 1.42

[[record]]
molecule = "CCOC(=O)C1=C(C2CCN(S(=O)(=O)C3CC(C)(C(=O)O)C3)CC2)NC(c2nccs2)=NC1c1ccc(F)cc1C (stereo not drawn) [Compound 420A]"
obs_value = 1.32

[[record]]
molecule = "COC(=O)C1=C(C2CCN(S(=O)(=O)[C@H]3C[C@@H](CO)C3)CC2)NC(c2nccs2)=NC1c1ccc(F)cc1Cl (relative stereo) [Compound 357B]"
obs_value = 1.19

[[record]]
molecule = "COC(=O)C1=C(C2CC(C(=O)OC)C2)NC(c2nccs2)=NC1c1ccc(F)cc1Cl (single isomer, unassigned) [Compound 85C]"
obs_value = 1.98

[[record]]
molecule = "COC(=O)C1=C(C2CCN(S(=O)(=O)[C@H]3C[C@@H](C(=O)O)C3)CC2)NC(c2nccs2)=NC1c1ccc(F)c(F)c1Cl (relative stereo) [Compound 232D]"
obs_value = 1.60

[[record]]
molecule = "CCOC(=O)C1=C(C2CCN(S(=O)(=O)CC3CC(C(=O)O)C3)CC2)NC(c2nccs2)=NC1c1ccc(F)c(F)c1Cl (stereo not drawn) [Compound 480B]"
obs_value = 1.00


---

Assay: Cytotoxicity determination in HepG2.2.15 cells (CCK-8)
Assay type: cell-based
Conditions: human, 6 days of compound treatment, CCK-8, highest concentration 100 μM
Protocol: HBV replication inhibition by the compounds of this invention as well as cytotoxicity determination was determined in cells infected or transfected with HBV, or cells with stably integrated HBV, such as HepG2.2.15 cells (Sells et al. 1987). The method used herein is as follows. […] EC50 and CC50 values are calculated by the GraphPad Prism software and are averages where multiple measurements were made. […]
Hi! Just check whether CC50 at 6 days is below 30 µM. Below gives yes, equal or above gives no.

[[record]]
compound = "COC(=O)C1=C([C@H]2CCCC(C(=O)O)C2)NC(c2nccs2)=NC1c1cccc(F)c1Cl (stereo in doubt)"
class_name = "no"

[[record]]
compound = "COC(=O)C1=C(C2CCN(S(=O)(=O)C3COC3)C2)NC(c2nccs2)=NC1c1ccc(F)cc1Cl (stereo not drawn)"
class_name = "yes"

[[record]]
compound = "COC(=O)C1=C(C2CCN(S(C)(=O)=O)CC2)NC(c2nccs2)=NC1c1ccc(F)cc1Br (single isomer, unassigned) [Compound 120A]"
class_name = "no"

[[record]]
compound = "COC(=O)C1=C([C@H]2CC[C@H](C(=O)O)CC2)NC(c2nccs2)=NC1c1cccc(F)c1Cl (stereo partly drawn)"
class_name = "no"

[[record]]
compound = "COC(=O)C1=C(C2CCN(C(=O)C3(C(=O)OC)CC3)CC2)NC(c2nccs2)=NC1c1ccc(F)cc1Cl (stereo not drawn)"
class_name = "yes"

[[record]]
compound = "CCOC(=O)C1=C(C2CCN(S(=O)(=O)[C@H]3CC[C@@H](C(=O)O)CC3)CC2)NC(c2nccs2)=NC1c1ccc(F)c(F)c1Cl (relative stereo) [Compound 354B]"
class_name = "yes"


---

assay: Cytotoxicity determination in HepG2.2.15 cells (CCK-8); format: cell-based; conditions: human, 6 days of compound treatment, CCK-8, highest concentration 100 μM
Hi! Just check whether CC50 at 6 days is below 60 µM. Below gives satisfied, equal or above gives not satisfied.

[[record]]
compound = "COC(=O)C1=C(C2CCN(S(C)(=O)=O)CC2)NC(c2nccs2)=NC1c1cccc(F)c1Cl (stereo not drawn) [Compound 112]"
class_name = "satisfied"

[[record]]
compound = "COC(=O)C1=C(C2CCN(S(=O)(=O)N3CCOCC3)CC2)NC(c2nccs2)=NC1c1ccc(F)cc1Cl (stereo not drawn) [Compound 164]"
class_name = "satisfied"

[[record]]
compound = "COC(=O)C1=C(C2CCN(S(=O)(=O)C3CCC(CC(=O)O)CC3)CC2)NC(c2nccs2)=NC1c1ccc(F)c(F)c1Cl (stereo not drawn) [Compound 478]"
class_name = "satisfied"

[[record]]
compound = "CCCS(=O)(=O)N[C@H]1CC[C@H](C2=C(C(=O)OC)C(c3ccc(F)cc3Cl)N=C(c3nccs3)N2)CC1 (single isomer, unassigned) [Compound 186A]"
class_name = "not satisfied"

[[record]]
compound = "COC(=O)C1=C(C2CCN(S(=O)(=O)[C@H]3C[C@H](C(=O)O)C3)C2)NC(c2nccs2)=NC1c1ccc(F)cc1Cl (relative stereo) [Compound 367A]"
class_name = "satisfied"


---

test: Cytotoxicity determination in HepG2.2.15 cells (CCK-8); type: cell-based; conditions: human, 6 days of compound treatment, CCK-8, highest concentration 100 μM
Hi! Just check whether CC50 at 6 days is below 20 µM. Below gives y, equal or above gives n.

[[record]]
compound = "COC(=O)C1=C([C@H]2CC[C@H](C(=O)O)CC2)NC(c2nccs2)=NC1c1ccc(F)c(F)c1Br (some centres unmarked) [Compound 229B]"
class_name = "n"

[[record]]
compound = "COC(=O)C1=C(C2CC3CCC(C2)N3S(C)(=O)=O)NC(c2nccs2)=NC1c1cccc(F)c1Cl (single isomer, unassigned) [Compound 39B]"
class_name = "n"

[[record]]
compound = "COC(=O)C1=C(C2CCN(S(=O)(=O)C[C@H]3CC[C@H](C(=O)O)CC3)CC2)NC(c2nccs2)=NC1c1cccc(F)c1Cl (some centres unmarked)"
class_name = "y"

[[record]]
compound = "COC(=O)C1=C(C2CCN(S(=O)(=O)c3nccs3)CC2)NC(c2nccs2)=NC1c1ccc(F)cc1Cl (centres unmarked) [Compound 200A]"
class_name = "n"

[[record]]
compound = "COC(=O)C1=C([C@H]2CC[C@H](NS(=O)(=O)CCO)CC2)NC(c2nccs2)=NC1c1ccc(F)cc1Cl (relative stereo) [Compound 187B]"
class_name = "y"

[[record]]
compound = "COC(=O)C1=C([C@H]2CC[C@H](NS(=O)(=O)CCCO)CC2)NC(c2nccs2)=NC1c1ccc(F)c(F)c1Cl (relative stereo) [Compound 253B]"
class_name = "y"

[[record]]
compound = "COC(=O)C1=C([C@H]2CC[C@H](N(CCO)C(C)=O)CC2)NC(c2nccs2)=NC1c1ccc(F)c(F)c1Cl (single isomer, unassigned) [Compound 433B]"
class_name = "y"

[[record]]
compound = "COC(=O)C1=C(C2CCCO2)NC(c2nccs2)=NC1c1ccc(F)cc1Cl (single isomer, unassigned) [Compound 70D]"
class_name = "n"


src = patent US11639350B2
